- Tested on: M. hyopneumoniae JF 435
- measurement-description: MIC against Mycoplasma in vitro (Friis broth with agarose)
- Type: cell-based
- test-settings: Mesomycoplasma hyopneumoniae, JF435, 144 h; M. hyopneumoniae JF 435; 6 days at 37° C; read-out: MIC
parameter: MIC (µg/mL)

[[record]]
compound = "CC(=Cc1nc(-c2ccc([N+](=O)[O-])cc2)no1)CC1OCC(CC2OC2C(C)C(C)O)C(O)C1O (stereo not shown) [Example 16]"
parameter = "MIC"
display_unit = "µg/mL"
meas_value = 1

[[record]]
compound = "CC(=Cc1nc(-c2ccccc2)no1)CC1OCC(CC2OC2C(C)C(C)O)C(O)C1O (stereo not shown) [Example 15]"
parameter = "MIC"
display_unit = "µg/mL"
meas_value = 10

[[record]]
compound = "CC(=Cc1nnc(-c2ccccc2)o1)CC1OCC(CC2OC2C(C)C(C)O)C(O)C1O (stereo not shown) [Example 1]"
parameter = "MIC"
display_unit = "µg/mL"
meas_value = 5

[[record]]
compound = "CC(=Cc1noc(-c2ccccc2)n1)CC1OCC(CC2OC2C(C)C(C)O)C(O)C1O (stereo not shown) [Example 17]"
parameter = "MIC"
display_unit = "µg/mL"
meas_value = 5

